- Tested on: A549/ATCC NSCLC
- Experiment: NCI-60 one-dose screen, 48 h (100 = growth as untreated, 0 = no growth, -100 = all killed)
- Recorded conditions: 10 µM unless noted
Compounds without any hit were thinned out: in the full panel of roughly 83,000, 20% have a hit.
Measured attribute: growth (%)
Supply the numeric figure in %, leaving out any unit text.

# count of solved cases: 2
Query: I have this compound here, O=C(CSc1nc2ccccc2c(=O)n1-c1ccccc1)Nc1ccc(-c2nc3ccc([N+](=O)[O-])cc3[nH]2)cc1 , and I need its recorded growth.
Response: 93.4

Query: I have this compound here, O=[N+]([O-])c1cc(/C=N/Nc2nc(N/N=C/c3ccc(Cl)c([N+](=O)[O-])c3)nc(N3CCCCC3)n2)ccc1Cl , and I need its recorded growth.
Response: 111

Further cases:
Query: I have this compound here, Nc1cc(-c2c[nH]c3ccc(Br)cc23)nc2cc(-c3c[nH]c4ccc(Br)cc34)nn12 , and I need its recorded growth.
Response: 17.7

Query: I have this compound here, COc1ccc(/C=C/C(=O)c2cc(S(N)(=O)=O)c(OC)cc2OC)cc1 , and I need its recorded growth.
Response: 84.3
